test: Salt screening (slurry crystallization); type: physicochemical; parameters: key: (+) shows that a crystalline salt was formed; (−) physical mixtures; conditions: EtOH; slurry 50° C. then 25° C.
attribute.measured: Salt screening result

COc1cc(C(F)(F)F)c(OC)cc1[C@@H]1CCCNC1.O=S(=O)(O)O [Sulfate salt Polymorph A] ... +
COc1cc(C(F)(F)F)c(OC)cc1[C@@H]1CCCNC1.Cl ... +
COc1cc(C(F)(F)F)c(OC)cc1[C@@H]1CCCNC1.O=C(O)/C=C/C(=O)O [Mono-fumarate salt Polymorph C] ... +
COc1cc(C(F)(F)F)c(OC)cc1[C@@H]1CCCNC1.O=P(O)(O)O [Phosphate salt Polymorph A] ... Clear solution
COc1cc(C(F)(F)F)c(OC)cc1[C@@H]1CCCNC1.COc1cc(C(F)(F)F)c(OC)cc1[C@@H]1CCCNC1.O=C(O)CCC(=O)O [Hemi-succinate salt Polymorph B] ... +
COc1cc(C(F)(F)F)c(OC)cc1[C@@H]1CCCNC1.O=C(O)C[C@H](O)C(=O)O [L-malate salt Polymorph A] ... +
CC(=O)O.COc1cc(C(F)(F)F)c(OC)cc1[C@@H]1CCCNC1 [Acetate salt Polymorph A] ... Clear solution
COc1cc(C(F)(F)F)c(OC)cc1[C@@H]1CCCNC1.O=C(O)CCC(=O)O [Succinate salt Polymorph A (anhydrate)] ... +

----------
Test: Crystallinity by XRPD
Format: physicochemical
Conditions: salt screening sample
Procedure: Obtained suspensions were taken out and centrifuged. Solids obtained was analysed by XRPD. Salts with high or medium crystallinity were further characterized (see Table 5). According to the salt screening results (see Table 4), totally 19 potential salt hits were identified. […]
attribute.measured: Crystallinity

COc1cc(C(F)(F)F)c(OC)cc1[C@@H]1CCCNC1.N[C@@H](CCC(=O)O)C(=O)O [L-glutamate salt Polymorph C] ... High
COc1cc(C(F)(F)F)c(OC)cc1[C@@H]1CCCNC1.COc1cc(C(F)(F)F)c(OC)cc1[C@@H]1CCCNC1.O=C(O)CCC(=O)O [Hemi-succinate salt Polymorph B] ... Medium
COc1cc(C(F)(F)F)c(OC)cc1[C@@H]1CCCNC1.N[C@@H](CC(=O)O)C(=O)O [L-aspartate salt Polymorph A] ... High
COc1cc(C(F)(F)F)c(OC)cc1[C@@H]1CCCNC1.N[C@@H](CCC(=O)O)C(=O)O [L-glutamate salt Polymorph A] ... Low
COc1cc(C(F)(F)F)c(OC)cc1[C@@H]1CCCNC1.C[C@@H](O)C(=O)O [D-lactate salt Polymorph A] ... High
COc1cc(C(F)(F)F)c(OC)cc1[C@@H]1CCCNC1.Cl ... High
COc1cc(C(F)(F)F)c(OC)cc1[C@@H]1CCCNC1.N[C@@H](CCC(=O)O)C(=O)O [L-glutamate salt Polymorph B] ... Medium
COc1cc(C(F)(F)F)c(OC)cc1[C@@H]1CCCNC1.COc1cc(C(F)(F)F)c(OC)cc1[C@@H]1CCCNC1.O=C(O)/C=C/C(=O)O [Hemi-fumarate salt Polymorph B] ... Medium
COc1cc(C(F)(F)F)c(OC)cc1[C@@H]1CCCNC1.COc1cc(C(F)(F)F)c(OC)cc1[C@@H]1CCCNC1.O=C(O)C(O)C(O)C(=O)O [Hemi L-tartrate salt Polymorph A] ... Medium

# credit: patent US12723024B2
